Test: Antiplatelet activity in human platelet rich plasma assessed as inhibition of collagen-induced platelet aggregation at 10 uM preincubated for 3 mins before collagen challenge by turbidimetric method
Assay type: functional
MEASURED PROPERTY: inhibition at 10 µM (%)
Expressed in %, but write only the number.

Record request: inhibition at 10 µM value, item `COc1ccc(-n2nc(C(=O)Oc3cccc(C(C)C)c3)cc2-c2ccc(Cl)cc2)nn1`
42.3

Record request: inhibition at 10 µM value, item `COc1ccc(-n2nc(C(=O)OCCC(C)C)cc2-c2ccc(Cl)cc2)nn1`
66.7

Record request: inhibition at 10 µM value, item `COc1ccc(-n2nc(C(=O)N3CCN(c4ccc(C)cc4)CC3)cc2-c2ccc(Cl)cc2)nn1`
20.1

Record request: inhibition at 10 µM value, item `COc1ccc(-n2nc(C(=O)Oc3ccc(C4CCCC4)cc3)cc2-c2ccc(Cl)cc2)nn1`
19.9
